# TEST SETTINGS: pH 2.7
Marks after values point to notes of the source that are not given here.
Would you kindly list Log P for each of these compounds?

Task: # input compound: CCNC(=O)C(C#N)=C(NC(C)C(C)C)c1ccnc(Cl)c1F (centres unmarked) ; wanted: its Log P
Output: 3.44^[a]

Task: Reported Log P for C#CC(C)NC(=C(C#N)C(=O)OCC)c1sc(C)nc1C(F)(F)F (centres unmarked) : what is it?
Output: 3.06^[a]

Task: Given the compound CCOCC(NC(=C(C#N)C(=O)OCC)c1cn(C)nc1C(F)F)C(C)C (centres unmarked) , what is its reported Log P?
Output: 3.39^[a]

Task: Which value of Log P has been reported for CCOC(=O)C(C#N)=C(Nc1ccc2ncsc2c1)c1sccc1C(F)(F)F in the records?
Output: 3.21^[a]

Task: # query: Log P of entry CCOC(=O)C(C#N)=C(NC(C)CSc1cc(Cl)ccc1Cl)c1cn(C)nc1C(F)F (racemic)
Output: 4.08^[a]

Task: Item under review: CC(NC(=C(C#N)C(=O)NCC(F)(F)F)c1cccnc1Cl)c1nccs1 (centres unmarked) . Reported Log P?
Output: 2.44^[a]

Task: For the compound shown here, CCOC(=O)C(C#N)=C(NC(C)C1CC1)c1cc(C)oc1C (centres unmarked) , give the reported Log P.
Output: 3.63^[a]

Task: State the recorded Log P for this entry: COC(=O)C(C#N)=C(NC(C)C1CCCO1)c1sc(C)nc1C(F)(F)F (mixture of isomers)
Output: 1.97^[a]

Task: Which Log P is reported for this compound? COC(=O)C(C#N)=C(Nc1ccc(C(C)C)cc1)c1sc(C)nc1C(F)(F)F
Output: 4.14^[a]

Task: Requested read-out: Log P. Entry: CCOC(=O)C(C#N)=C(NC(C)C(C)(C)C)c1cn(C)nc1C(F)F (racemic)
Output: 3.37^[a]

Task: Any idea what Log P was measured for CCOC(=O)C(C#N)=C(Nc1ccc(OC)cc1)c1cn(C)nc1C(F)F ?
Output: 2.77^[a]

Task: Please look up its Log P: CCOC(=O)C(C#N)=C(NC(C)COc1c(C)cccc1C)c1sc(C)nc1C(F)(F)F (racemic)
Output: 4.7^[a]

Task: Item under review: COC(=O)C(C#N)=C(NC(C)c1sc(C)nc1C)c1sc(C)nc1C(F)(F)F (racemic) . Reported Log P?
Output: 2.8^[a]

Task: Requested field: Log P. Item: CCOC(=O)C(C#N)=C(NC(C)(C)C=C(Cl)Cl)c1sccc1C(F)(F)F
Output: 4.26^[a]

Task: Form field: reported Log P of CCOC(=O)C(C#N)=C(NC(C)COCc1ccc(C(F)(F)F)cc1)c1cccnc1Cl (centres unmarked)
Output: 4.2^[a]

Task: Recorded Log P of CCOC(=O)C(C#N)=C(NC(C)c1ccccn1)c1ccncc1C(F)(F)F (racemic) , please.
Output: 2.7^[a]

Task: Which Log P is listed for COC(=O)C(C#N)=C(NC(C)C1(Cl)CC1)c1sc(C)nc1C(F)(F)F (centres unmarked) ?
Output: 3.53^[a]

Task: # lookup: Log P of CCOC(=O)C(C#N)=C(NC(C)c1nccs1)c1cn(C)cc1C(F)(F)F (racemic)
Output: 2.97^[a]

Task: Look at this compound and give its reported Log P. CCCCC(C)NC(=C(C#N)C(=O)OCC)c1cn(C)nc1C(F)F (centres unmarked)
Output: 3.58^[a]

Task: Entry under review: CCOC(=O)C(C#N)=C(Nc1cccc(SC)c1)c1ccsc1Br . Reported Log P?
Output: 4.04^[a]

Task: Form field: reported Log P of COC1(NC(=O)C(C#N)=C(NC(C)C(C)C)c2cccnc2Cl)CC1 (centres unmarked)
Output: 2.75^[a]

Task: Query (compound): CCOC(=O)C(C#N)=C(NC(C)CC)c1sc(C)nc1C(F)(F)F (centres unmarked) ; field requested: Log P
Output: 3.59^[a]

Task: Give the measured Log P of CCOC(=O)C(C#N)=C(NC(C)c1cc(Cl)ccc1Cl)c1cccnc1Cl (racemic) .
Output: 4.13^[a]

Task: Request the reported Log P associated with CCOC(=O)C(C#N)=C(NC(C)C(C)OC)c1scnc1Cl (racemic)
Output: 2.94^[a]

Task: I'd like to know its Log P. The compound in question is CCOC(=O)C(C#N)=C(NC(C)CN)c1cn(C)nc1C(F)(F)F (centres unmarked)
Output: 1.11^[a]

Task: Returns the measured Log P for the input compound. Input: C#CC(C)NC(=C(C#N)C(=O)OCC)c1sccc1Br (centres unmarked)
Output: 3.17^[a]

Task: Suppose we examine the compound CCOC(=O)C(C#N)=C(NC(C)(C)C#Cc1ccc(C#N)cc1)c1cn(C)nc1C(F)F [Compound 1238] ; what Log P value has been reported?
Output: 3.69^[a]

Task: Look up Log P: C#CC(C)(C)NC(=C(C#N)C(=O)OCC)c1sccc1Cl
Output: 3.41^[a]

Task: Entry COC(=O)C(C#N)=C(NC(C)c1ccc(Cl)cc1)c1cn(C)nc1C(F)F (centres unmarked) has what Log P?
Output: 3.31^[a]

Task: Return reported Log P; argument: CCOC(=O)C(C#N)=C(NCc1nccs1)c1ccncc1Cl
Output: 2.11^[a]

Task: Which Log P value is on record for CCOC(=O)C(C#N)=C(NC(C)CCCC(C)C)c1ccsc1Br (centres unmarked) ?
Output: 5.32^[a]

Task: For CCOC(=O)C(C#N)=C(NC(C)C(N)=O)c1sccc1Br (centres unmarked) [Compound 652] , what is its reported Log P?
Output: 1.94^[a]

Task: Fill in the blank: the reported Log P of CCOC(=O)C(C#N)=C(NCc1nccs1)c1cnccc1C(F)(F)F is ____.
Output: 2.4^[a]

Task: Quick one: Log P for CCOC(=O)C(C#N)=C(NC(C)c1ccccn1)c1cn(C)nc1I (racemic) ?
Output: 2.37^[a]

Task: I'd like to know its Log P. The compound in question is CCOC(=O)C(C#N)=C(Nc1ccc(SC)cc1)c1ccsc1Br
Output: 4.01^[a]
